- assay_target: human Yes1 enzyme (Homo sapiens, UniProt P07947)
- Construct: made in house
- Sequence (P07947 whole entry): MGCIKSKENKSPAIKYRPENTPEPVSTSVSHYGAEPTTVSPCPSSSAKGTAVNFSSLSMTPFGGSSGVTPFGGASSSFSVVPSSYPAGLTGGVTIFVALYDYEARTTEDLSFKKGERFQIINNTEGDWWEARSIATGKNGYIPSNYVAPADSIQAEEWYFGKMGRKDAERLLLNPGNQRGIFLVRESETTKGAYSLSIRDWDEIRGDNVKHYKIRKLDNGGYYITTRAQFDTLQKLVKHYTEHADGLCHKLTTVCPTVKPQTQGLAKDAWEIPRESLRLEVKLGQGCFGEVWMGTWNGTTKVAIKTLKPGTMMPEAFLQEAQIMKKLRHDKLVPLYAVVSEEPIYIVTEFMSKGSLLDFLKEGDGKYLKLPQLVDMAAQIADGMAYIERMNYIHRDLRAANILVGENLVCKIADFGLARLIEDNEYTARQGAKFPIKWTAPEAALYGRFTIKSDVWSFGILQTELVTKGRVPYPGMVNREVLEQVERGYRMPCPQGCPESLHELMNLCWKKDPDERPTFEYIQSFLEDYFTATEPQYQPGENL
- assay_method_text: Yes1 enzyme inhibitory activity (time-resolved fluorometry, biotinylated peptide phosphorylation)
- Format: biochemical
- condition_summary: biotinylated peptide phosphorylation, read-out: YES_IC50
assay_endpoint: pIC50
Would you please state pIC50, meaning minus log10 of the concentration in mol/L, as a bare number?

// solved cases for pIC50 follow
>>> measured("Cc1cnc(F)c(S(=O)(=O)Nc2cc3[nH]c(C(=O)c4cnn(-c5ccc(Oc6ccccc6F)cc5C)c4N)cc3cc2F)c1")
8.74
>>> measured("Cc1cc(Oc2c(F)cccc2F)ncc1-n1ncc(C(=O)c2cc3cc(OCC(F)F)c(NS(=O)(=O)c4cncc(F)c4)cc3[nH]2)c1N")
8.51
>>> measured("Cc1cc2cc(C(=O)c3cnn(-c4cnc(Oc5c(F)cccc5F)cc4C)c3N)[nH]c2cc1N1C(=O)[C@@H]2C[C@@H](O)CN2C1=O")
9.07
>>> measured("Cc1cc(Oc2ccccc2F)ccc1-n1ncc(C(=O)c2cc3cc(OC(F)F)c(N4CCC(N5CCOCC5)CC4)cc3[nH]2)c1N")
9.08
>>> measured("Cc1cc2cc(C(=O)c3cnn(-c4cnc(Oc5cccc(Cl)c5)cc4C)c3N)[nH]c2cc1NS(=O)(=O)N1CCOCC1")
7.39
>>> measured("Cc1cc(Oc2ccccc2F)ncc1-n1ncc(C(=O)c2cc3cc(F)c(NS(=O)(=O)C4CC4)cc3[nH]2)c1N")
8.85
>>> measured("Cc1cc(Oc2c(F)cccc2F)ncc1-n1ncc(C(=O)c2cc3cc(F)c(N4C(=O)[C@@H]5C[C@@H](O)CN5C4=O)cc3[nH]2)c1N")
8.92
>>> measured("Cc1cc(Oc2ccccc2F)cc(F)c1-n1ncc(C(=O)c2cc3cc(OCC(F)F)c(NS(=O)(=O)CCCF)cc3[nH]2)c1N")
8.77

Q) Data request, read-out pIC50, for Cc1cc(Oc2ccccc2F)ccc1-n1ncc(C(=O)c2cc3cc(OCC(F)F)c(NS(=O)(=O)CCCF)cc3[nH]2)c1N
A) 8.49

Q) Item: Cc1cc(Oc2c(F)cccc2F)ncc1-n1ncc(C(=O)c2cc3cc(OCC(F)F)c(NS(=O)(=O)c4cccc(C#N)n4)cc3[nH]2)c1N
A) 8.55

Q) Also check Cc1cc(Oc2ccccc2F)ccc1-n1ncc(C(=O)c2cc3cc(OC(F)F)c(NC4COC4)cc3[nH]2)c1N
A) 8.49

Q) Would you mind doing Cc1cc(Oc2ccccc2F)ncc1-n1ncc(C(=O)c2cc3cc(F)c(NS(=O)(=O)c4cccc(C#N)n4)cc3[nH]2)c1N as well?
A) 7.96

----------
- assay_target: human Yes1 enzyme (Homo sapiens)
- Construct: made in house
- assay_method_text: Yes1 enzyme inhibitory activity (time-resolved fluorometry, biotinylated peptide phosphorylation)
- Type: biochemical
- condition_summary: biotinylated peptide phosphorylation, read-out: YES_IC50
pIC50: −log10 of the molar value.
Quick rule: pIC50 of at least 9 means Satisfied, below that means Not satisfied.

Some entries whose results are on file:
>>> qualitative_label("Cc1cc(Oc2c(F)cccc2F)ncc1-n1ncc(C(=O)c2cc3cc(F)c(NS(=O)(=O)c4cncc(Cl)c4)cc3[nH]2)c1N")
"Not satisfied"
>>> qualitative_label("Cc1cccc(S(=O)(=O)Nc2cc3[nH]c(C(=O)c4cnn(-c5cnc(Oc6c(F)cccc6F)cc5C)c4N)cc3cc2C)n1")
"Not satisfied"
>>> qualitative_label("Cc1cc2cc(C(=O)c3cnn(-c4cnc(Oc5c(F)cccc5F)cc4C)c3N)[nH]c2cc1NS(=O)(=O)c1cccc(Cl)c1")
"Not satisfied"

Q) Can Cc1cc(Oc2ccccc2F)ccc1-n1ncc(C(=O)c2cc3cc(OCC(F)F)c(N4CCOC4=O)cc3[nH]2)c1N be said to have pIC50 at or above 9?
A) Satisfied
